The values you see were collected from paper PMC4134938.

experiment: Vorinostat serum pharmacokinetics; type: in vivo, human; conditions: human, serum, po, 300 mg, AUC, vorinostat 300 mg PO BID, Day 1, serum, mean

| Molecule | Scale unit | AUC |
| --- | --- | --- |
| O=C(CCCCCCC(=O)Nc1ccccc1)NO [vorinostat, Suberoylanilide Hydroxamic Acid] | µM·h | 4.4 |

----------
test: Vorinostat serum pharmacokinetics; format: in vivo, human; settings: human, serum, po, 400 mg, AUC, vorinostat 400 mg PO BID, Day 5 (with FOLFOX), serum, mean

| Molecule | AUC |
| --- | --- |
| O=C(CCCCCCC(=O)Nc1ccccc1)NO [vorinostat, Suberoylanilide Hydroxamic Acid] | 7.4 µM·h |
